Data provenance is paper PMC10397247.

Catalogue of interaction score values
- test target: T1, 4H3666-AA
- T1 chain: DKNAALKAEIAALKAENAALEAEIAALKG
- assay protocol: two-hybrid library CCmax;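 further: natural log of median RNA to DNA barcode read ratio; higher means stronger binding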
- setup conditions: mean of both orientations
quantity name: interaction score

>>> data_value("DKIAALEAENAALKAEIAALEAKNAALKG [4H2248-AA]")
-0.505
>>> data_value("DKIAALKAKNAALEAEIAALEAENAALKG [4H2948-AA]")
-1.69
>>> data_value("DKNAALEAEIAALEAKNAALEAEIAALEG [4H3121-AA]")
-0.746
>>> data_value("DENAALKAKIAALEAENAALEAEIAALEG [4H1809-AA]")
-1.2
>>> data_value("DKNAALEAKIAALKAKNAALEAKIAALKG [4H3446-AA]")
0.18
>>> data_value("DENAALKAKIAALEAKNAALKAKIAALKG [4H1854-AA]")
1.68
>>> data_value("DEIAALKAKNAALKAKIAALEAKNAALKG [4H1000-AA]")
0.777
>>> data_value("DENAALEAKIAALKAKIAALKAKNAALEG [4H1391-AA]")
-1.8
>>> data_value("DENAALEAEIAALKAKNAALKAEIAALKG [4H1146-AA]")
2.01
>>> data_value("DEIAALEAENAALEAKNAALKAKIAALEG [4H189-AA]")
-0.914
>>> data_value("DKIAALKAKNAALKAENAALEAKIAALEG [4H3029-AA]")
-1.86
>>> data_value("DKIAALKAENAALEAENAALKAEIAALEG [4H2713-AA]")
-1.39
>>> data_value("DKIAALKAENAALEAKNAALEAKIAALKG [4H2742-AA]")
-1.97
